# SYSTEM_TESTED: Zea mays EPSPS variant Zm-H6 (868-H6) (Zea mays, UniProt O24566, A1R/A3W/A415G/A71Q/D401G/E301S/E390G/G101A/I207L/K83R/L97C/T278A/T360S/T440Q/V437R)
# ASSAY_NAME: Substrate saturation analysis with glyphosate (Example 8), Zm-H6
# Type: biochemical
MEASURED_PROPERTY: Ki (µM)
Please reply with the bare figure in µM and do not write the unit itself.

Report Ki for O=C(O)CNCP(=O)(O)O [glyphosate, N-phosphonomethylglycine] please.
381

---

# SYSTEM_TESTED: Zea mays EPSPS variant Zm-H6 (868-H6) with R61Y (H6-R61Y) (Zea mays, UniProt O24566, A1R/A3W/A415G/A71Q/D401G/E301S/E390G/G101A/I207L/K83R/L97C/R60Y/T278A/T360S/T440Q/V437R)
# Construct: 868-H6 plus R61Y; E. coli BL21(DE3), Ni-NTA purified
# Sequence (O24566 with tags, fused parts or gaps A1R/A3W/R60Y/A71Q/K83R/L97C/G101A/I207L/T278A/E301S/T360S/E390G/D401G/A415G/V437R/T440Q): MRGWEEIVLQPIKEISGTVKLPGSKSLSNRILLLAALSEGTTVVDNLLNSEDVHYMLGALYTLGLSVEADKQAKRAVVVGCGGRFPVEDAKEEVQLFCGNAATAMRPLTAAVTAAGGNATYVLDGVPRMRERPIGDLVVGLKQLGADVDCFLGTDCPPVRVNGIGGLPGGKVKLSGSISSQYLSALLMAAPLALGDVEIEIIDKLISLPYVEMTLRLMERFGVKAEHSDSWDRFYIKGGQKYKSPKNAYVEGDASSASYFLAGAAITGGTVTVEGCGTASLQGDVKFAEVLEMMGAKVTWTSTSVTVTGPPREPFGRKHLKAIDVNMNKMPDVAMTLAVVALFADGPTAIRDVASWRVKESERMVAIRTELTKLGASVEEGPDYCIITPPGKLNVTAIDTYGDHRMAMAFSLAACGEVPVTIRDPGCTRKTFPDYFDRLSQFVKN
# ASSAY_NAME: Substrate saturation kinetic analysis with glyphosate, H6-R61Y
MEASURED_PROPERTY: Ki
Reply with the number and its unit after it.

Report Ki for O=C(O)CNCP(=O)(O)O [glyphosate, N-phosphonomethylglycine] please.
309 µM

---

# SYSTEM_TESTED: Zea mays EPSPS variant WT-FS-B (103I 107S 278G 338S) (Zea mays, UniProt O24566, A337S/P106S/T102I/T277G)
# Sequence (O24566 with tags, fused parts or gaps T102I/P106S/T277G/A337S): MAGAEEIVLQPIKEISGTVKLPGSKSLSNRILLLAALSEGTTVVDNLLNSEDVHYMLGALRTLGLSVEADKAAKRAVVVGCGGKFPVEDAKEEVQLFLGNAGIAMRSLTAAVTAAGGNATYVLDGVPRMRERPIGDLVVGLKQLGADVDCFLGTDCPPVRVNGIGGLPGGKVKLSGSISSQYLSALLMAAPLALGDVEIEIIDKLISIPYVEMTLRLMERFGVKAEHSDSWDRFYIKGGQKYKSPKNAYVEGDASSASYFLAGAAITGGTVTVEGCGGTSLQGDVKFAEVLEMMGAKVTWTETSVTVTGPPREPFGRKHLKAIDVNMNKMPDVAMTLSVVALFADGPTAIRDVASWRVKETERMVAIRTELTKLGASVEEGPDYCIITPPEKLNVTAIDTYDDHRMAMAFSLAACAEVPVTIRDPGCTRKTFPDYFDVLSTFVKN
# ASSAY_NAME: EPSPS substrate saturation kinetics, WT-FS-B
MEASURED_PROPERTY: Ki (µM)
Please reply with the bare figure in µM and do not write the unit itself.

Report Ki for O=C(O)CNCP(=O)(O)O [glyphosate, N-phosphonomethylglycine] please.
552
